Numbers sourced from patent US20250250357A1.

In this section, each of the binders is paired with its reported OD450 nm.
- assayed_target: T1, human MSLN-hFc protein (Acro, Cat. No. MSN-H5253) (human, UniProt Q13421 296-580)
- T1 construct: bought protein; also called human MSLN full-length protein; not shown: human Fc (hFc) of the bought protein
- T1 sequence (Q13421 other isoform, or with tags, fused parts or gaps limits assumed): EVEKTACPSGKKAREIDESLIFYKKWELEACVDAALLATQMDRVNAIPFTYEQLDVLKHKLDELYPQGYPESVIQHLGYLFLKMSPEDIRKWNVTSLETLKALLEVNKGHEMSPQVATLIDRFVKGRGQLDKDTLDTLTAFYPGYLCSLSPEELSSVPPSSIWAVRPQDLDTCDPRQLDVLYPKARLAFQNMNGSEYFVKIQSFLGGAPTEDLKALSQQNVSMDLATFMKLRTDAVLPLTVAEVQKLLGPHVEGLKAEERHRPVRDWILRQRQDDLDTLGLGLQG
- method: ELISA, coated human MSLN-hFc, antibody 0.001 nM
Answer field: number only, no words.

[[record]]
binder = "F2.23.12-H5 (scFv, not shown: small tags and cut ends, also called S009-F2.23.12 humanized VH2 + VL1) scFv: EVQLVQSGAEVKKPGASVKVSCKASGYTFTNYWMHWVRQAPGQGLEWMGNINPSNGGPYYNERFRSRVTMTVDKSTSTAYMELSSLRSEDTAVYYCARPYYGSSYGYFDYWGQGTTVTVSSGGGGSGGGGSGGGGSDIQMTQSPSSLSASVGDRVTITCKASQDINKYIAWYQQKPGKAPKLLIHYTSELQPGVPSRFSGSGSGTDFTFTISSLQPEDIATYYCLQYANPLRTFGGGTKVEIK"
quantitative_readout = 0.06

[[record]]
binder = "F2.23.12-H16 (scFv, not shown: small tags and cut ends, also called S009-F2.23.12 humanized VH4 + VL4) scFv: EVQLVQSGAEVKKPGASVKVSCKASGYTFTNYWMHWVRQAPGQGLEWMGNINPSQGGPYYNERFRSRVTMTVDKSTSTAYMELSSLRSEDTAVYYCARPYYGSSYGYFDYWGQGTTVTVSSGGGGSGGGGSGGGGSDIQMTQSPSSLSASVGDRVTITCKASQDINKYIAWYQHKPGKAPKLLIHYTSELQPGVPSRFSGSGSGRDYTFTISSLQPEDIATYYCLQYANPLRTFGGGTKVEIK"
quantitative_readout = 0.07

[[record]]
binder = "F2.23.12-H4 (scFv, not shown: small tags and cut ends, also called S009-F2.23.12 humanized VH1 + VL4) scFv: EVQLVQSGAEVKKPGASVKVSCKASGYTFTNYWMHWVRQAPGQGLEWMGNINPSNGGPYYNERFRSRVTMTVDKSTSTVYMELSSLRSEDTAVYYCARPYYGSSYGYFDYWGQGTTVTVSSGGGGSGGGGSGGGGSDIQMTQSPSSLSASVGDRVTITCKASQDINKYIAWYQHKPGKAPKLLIHYTSELQPGVPSRFSGSGSGRDYTFTISSLQPEDIATYYCLQYANPLRTFGGGTKVEIK"
quantitative_readout = 0.08

[[record]]
binder = "F2.23.12-H1 (scFv, not shown: small tags and cut ends, also called S009-F2.23.12 humanized VH1 + VL1) scFv: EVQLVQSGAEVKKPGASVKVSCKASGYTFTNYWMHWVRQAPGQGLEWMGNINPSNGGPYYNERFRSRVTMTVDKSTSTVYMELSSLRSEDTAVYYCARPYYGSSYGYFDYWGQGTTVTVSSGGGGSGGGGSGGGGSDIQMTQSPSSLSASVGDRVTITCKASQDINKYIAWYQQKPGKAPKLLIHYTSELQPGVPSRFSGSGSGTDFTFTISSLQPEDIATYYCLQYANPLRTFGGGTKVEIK"
quantitative_readout = 0.06

[[record]]
binder = "F2.23.12-H8 (scFv, not shown: small tags and cut ends, also called S009-F2.23.12 humanized VH2 + VL4) scFv: EVQLVQSGAEVKKPGASVKVSCKASGYTFTNYWMHWVRQAPGQGLEWMGNINPSNGGPYYNERFRSRVTMTVDKSTSTAYMELSSLRSEDTAVYYCARPYYGSSYGYFDYWGQGTTVTVSSGGGGSGGGGSGGGGSDIQMTQSPSSLSASVGDRVTITCKASQDINKYIAWYQHKPGKAPKLLIHYTSELQPGVPSRFSGSGSGRDYTFTISSLQPEDIATYYCLQYANPLRTFGGGTKVEIK"
quantitative_readout = 0.07


Query: Look at this binder and give its reported OD450 nm. F2.23.12-H13 (scFv, not shown: small tags and cut ends, also called S009-F2.23.12 humanized VH4 + VL1) scFv: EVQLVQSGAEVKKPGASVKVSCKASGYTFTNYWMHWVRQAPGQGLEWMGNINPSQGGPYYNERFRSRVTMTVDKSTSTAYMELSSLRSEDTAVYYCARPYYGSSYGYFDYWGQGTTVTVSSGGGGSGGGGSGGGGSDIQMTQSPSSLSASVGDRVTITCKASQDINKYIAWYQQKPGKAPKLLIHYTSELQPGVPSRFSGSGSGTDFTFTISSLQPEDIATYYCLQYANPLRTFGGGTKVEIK
Result: 0.07
